Measured target: T1, recombinant sushi domain protein
T1 chain: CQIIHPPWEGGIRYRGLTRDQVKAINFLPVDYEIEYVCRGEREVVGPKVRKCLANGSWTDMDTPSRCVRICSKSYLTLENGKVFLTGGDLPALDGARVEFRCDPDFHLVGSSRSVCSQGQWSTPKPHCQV
Assay method text: FP
Property name: pKi
# pKi is unitless: minus log10 of the molar concentration; print number only

Binder: ETEFIACGPTGDEDALE (Limits taken by alignment with the printed human 17-mer … (177-193, W183 at position 7; W183 has the same number in mouse). C-terminal amide is likely, as printed for the TMR-hAJAP17 peptide, but is not stated for this one) [mAJAP17-W183C]
Property name: pKi
Observed measurement: 4.35

Now look at this entry.
[ask] What pKi value was documented for this binder, ETEFIACGPTGDEEALE [hAJAP17-W183C] ?
[reply] 4.31
